Values from the supplement of paper PMC10567573

B1: KCNA3 (parent)
chain: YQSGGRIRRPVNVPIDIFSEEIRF

Variants of: B1
ASSAY_DETAILS: protein stability index of a GFP-peptide fusion (GPS, HEK-293T) (PSI 1-6); higher = more stable;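 also: lentivirally expressed fusions sorted by FACS into six bins by GFP to DsRed ratio, PSI derived from sequencing read proportions per bin multiplied by bin number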
EXPERIMENTAL_SETUP: c terminus: a fixed tail appended
Given measured protein stability index, output MET if it is greater than or equal to 2 and NOT MET if not.

For orientation, consider the following solved cases.
>>> df
   mutation_annotation  qualitative_label
0                 I15G                MET
1                 F18Q            NOT MET
2                  Q2F            NOT MET
3                  R6N                MET
4                 V11C                MET
5                 I22F            NOT MET

Here is another variant to look at.
Q: Does the variant V13N have recorded protein stability index that is 2 or more?
Result: MET
